molecular target: human lysophosphatidic acid receptor 1 (LPAR1) (Homo sapiens, UniProt Q92633); assay: FLIPR test of antagonist properties: inhibition of LPA-induced intracellular calcium elevation in CHO-K1 cells expressing hLPAR1; conditions: FLIPR calcium assay, CHO-K1/LPA1R cells, LPA at EC80
Sequence (Q92633 whole entry): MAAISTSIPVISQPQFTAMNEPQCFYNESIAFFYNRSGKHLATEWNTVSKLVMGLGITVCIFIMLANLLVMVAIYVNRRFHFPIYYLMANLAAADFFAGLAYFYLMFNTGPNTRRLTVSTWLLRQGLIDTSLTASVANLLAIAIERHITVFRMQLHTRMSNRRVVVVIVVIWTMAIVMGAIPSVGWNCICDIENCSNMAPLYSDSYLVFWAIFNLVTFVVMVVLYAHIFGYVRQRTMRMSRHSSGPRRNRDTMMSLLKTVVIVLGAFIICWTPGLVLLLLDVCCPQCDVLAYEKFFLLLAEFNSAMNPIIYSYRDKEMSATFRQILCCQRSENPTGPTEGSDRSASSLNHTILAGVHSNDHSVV
pIC50: −log10 of the molar value.
Quantity Kind: pIC50

The cases that follow already have their pIC50 on record.
# Compound, Reading
measured = [
    ("Cc1nc(-c2nnn(C)c2COc2nccc(C(F)F)n2)ccc1OC1CC2CCC(C(=O)O)C2C1 (stereo not drawn)", 7.03),
    ("Cc1nc(-c2nnn(C)c2COc2nccc(C(C)(C)O)n2)ccc1OC1CC2CCC(C(=O)O)C2C1 (single isomer, unassigned) [Compound 10-P2]", 5.73),
]

A = Cc1nc(-c2nnn(C)c2COc2noc(C3CC3)n2)ccc1OC1CC2CCC(C(=O)O)C2C1 (single isomer, unassigned) [Compound 2-P2]
B = Cc1nc(-c2nnn(C)c2COc2nccc(C(F)(F)F)n2)ccc1OC1CC2CCC(C(=O)O)C2C1 (single isomer, unassigned) [Compound 1-P2]
C = Cc1nc(-c2nnn(C)c2COc2nccc(C(C)(C)O)n2)ccc1OC1CC2CCC(C(=O)O)C2C1 (single isomer, unassigned) [Compound 10-P1]
D = COCc1ccnc(OCc2c(-c3ccc(OC4CC5CCC(C(=O)O)C5C4)c(C)n3)nnn2C)n1 (single isomer, unassigned) [Compound 3-P1]
Problem: Order the 4 compounds from highest to lowest pIC50. Return value: ordered labels per request.
Result: D, C, B, A

----------
molecular target: human lysophosphatidic acid receptor 1 (LPAR1) (Homo sapiens, UniProt Q92633); experiment: FLIPR test of antagonist properties: inhibition of LPA-induced intracellular calcium elevation in CHO-K1 cells expressing hLPAR1; conditions: FLIPR calcium assay, CHO-K1/LPA1R cells, LPA at EC80
Quantity Kind: IC50 (nM)

The cases that follow already have their IC50 on record.
# Compound, Units Label, IC50
measured = [
    ("COCc1ccnc(OCc2c(-c3ccc(OC4CC5CCC(C(=O)O)C5C4)c(C)n3)nnn2C)n1 (single isomer, unassigned) [Compound 3-P2]", "nM", 1380),
    ("Cc1nc(-c2nnn(C)c2COc2nccc(O[C@@H]3CCOC3)n2)ccc1OC1CC2CCC(C(=O)O)C2C1 (single isomer, unassigned) [Compound 8-P2]", "nM", 502),
    ("CCc1cc(OCc2c(-c3ccc(OC4CC5CCC(C(=O)O)C5C4)c(C)n3)nnn2C)ncn1 (single isomer, unassigned) [Compound 4-P1]", "nM", 746),
    ("Cc1nc(-c2nnn(C)c2COc2nccc(O[C@H]3CCOC3)n2)ccc1OC1CC2CCC(C(=O)O)C2C1 (single isomer, unassigned) [Compound 9-P2]", "nM", 853),
]

I = COCc1ccnc(OCc2c(-c3ccc(OC4CC5CCC(F)(C(=O)O)C5C4)c(C)n3)nnn2C)n1 (single isomer, unassigned) [Compound 5-P2]
II = CCCN(C)C(=O)OCc1c(-c2ccc(O[C@H]3CCC[C@H](C(=O)O)C3)c(C)n2)nnn1C [BMS986278, reference compound]
Problem: Looking at recorded values for IC50, does I or II come in lower? Indicate which entry you chose by stating its label.
Result: II
(II: 60.6 nM, I: 917 nM)

Entry source: patent US20240317725A1
